assay: Displacement of [3H]CGS21680 from adenosine A2A receptor in bovine brain membranes; format: cell membranes, Bos taurus

>  <CHEMICAL STRUCTURE>
O=C(Nc1ccccc1)Nc1nc2ccccc2n2c(=O)n(-c3ccccc3)nc12

>  <Ki>
2.3 µM

$$$$

###

biological target: Adenosine receptor A2a (Homo sapiens) (UniProt P29274); test: Displacement of [3H]NECA from human cloned adenosine A2A receptor expressed in CHO cells at 10 uM; format: cell-based
Sequence (P29274 whole entry): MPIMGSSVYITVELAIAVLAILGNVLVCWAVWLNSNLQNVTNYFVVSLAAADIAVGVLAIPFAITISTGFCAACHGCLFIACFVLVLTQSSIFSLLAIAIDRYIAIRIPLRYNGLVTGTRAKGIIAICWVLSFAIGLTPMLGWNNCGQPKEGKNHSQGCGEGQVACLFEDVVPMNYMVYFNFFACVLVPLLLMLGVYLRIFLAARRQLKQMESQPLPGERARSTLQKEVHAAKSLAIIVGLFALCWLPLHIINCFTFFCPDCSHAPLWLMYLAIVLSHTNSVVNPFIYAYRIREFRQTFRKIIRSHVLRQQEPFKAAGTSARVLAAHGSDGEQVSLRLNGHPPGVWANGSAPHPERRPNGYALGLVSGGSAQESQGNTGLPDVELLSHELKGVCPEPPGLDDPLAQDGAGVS
Entries annotated with measured inhibition

>  <CHEMICAL STRUCTURE>
COc1ccccc1NC(=O)Nc1nn(-c2ccccc2)c(=O)c2ccccc12

>  <EXPERIMENTAL SYSTEM>
Adenosine receptor A2a (Homo sapiens) (UniProt P29274)

>  <inhibition, %>
17

$$$$
>  <CHEMICAL STRUCTURE>
COc1ccc(OC)c(NC(=O)Nc2nn(-c3ccccc3)c(=O)c3ccccc23)c1

>  <EXPERIMENTAL SYSTEM>
Adenosine receptor A2a (Homo sapiens) (UniProt P29274)

>  <inhibition, %>
19

$$$$
>  <CHEMICAL STRUCTURE>
O=C(Nc1ccccc1)Nc1nn(-c2ccccc2)c(=O)c2ccccc12

>  <EXPERIMENTAL SYSTEM>
Adenosine receptor A2a (Homo sapiens) (UniProt P29274)

>  <inhibition, %>
42

$$$$
>  <CHEMICAL STRUCTURE>
O=C(Nc1ccccc1Cl)Nc1nn(-c2ccccc2)c(=O)c2ccccc12

>  <EXPERIMENTAL SYSTEM>
Adenosine receptor A2a (Homo sapiens) (UniProt P29274)

>  <inhibition, %>
3

$$$$
>  <CHEMICAL STRUCTURE>
O=C(NCc1ccccc1)Nc1nn(-c2ccccc2)c(=O)c2ccccc12

>  <EXPERIMENTAL SYSTEM>
Adenosine receptor A2a (Homo sapiens) (UniProt P29274)

>  <inhibition, %>
23

$$$$
>  <CHEMICAL STRUCTURE>
COc1ccc(NC(=O)Nc2nn(-c3ccccc3)c(=O)c3ccccc23)c(OC)c1

>  <EXPERIMENTAL SYSTEM>
Adenosine receptor A2a (Homo sapiens) (UniProt P29274)

>  <inhibition, %>
33

$$$$
>  <CHEMICAL STRUCTURE>
COc1ccc(C(=O)Nc2nn(-c3ccccc3)c(=O)c3ccccc23)cc1

>  <EXPERIMENTAL SYSTEM>
Adenosine receptor A2a (Homo sapiens) (UniProt P29274)

>  <inhibition, %>
17

$$$$
>  <CHEMICAL STRUCTURE>
O=C(Nc1ccc(Cl)cc1)Nc1nn(-c2ccccc2)c(=O)c2ccccc12

>  <EXPERIMENTAL SYSTEM>
Adenosine receptor A2a (Homo sapiens) (UniProt P29274)

>  <inhibition, %>
9

$$$$
>  <CHEMICAL STRUCTURE>
Cc1ccccc1NC(=O)Nc1nn(-c2ccccc2)c(=O)c2ccccc12

>  <EXPERIMENTAL SYSTEM>
Adenosine receptor A2a (Homo sapiens) (UniProt P29274)

>  <inhibition, %>
28

$$$$
>  <CHEMICAL STRUCTURE>
CC(=O)Nc1nn(-c2ccccc2)c(=O)c2ccccc12

>  <EXPERIMENTAL SYSTEM>
Adenosine receptor A2a (Homo sapiens) (UniProt P29274)

>  <inhibition, %>
14

$$$$
